system: U2OS; experiment: Multiplex assay against U2OS; assay type: toxicity, cell-based; settings: human, 48 h, 1 µM, compound concentration 1 uM, replicate 2
Please enter rule met where Population Apoptotic (%) is greater than or equal to 40%, and rule not met where it is lower.

Prompt: Is it the case that CCCS(=O)(=O)c1nc(NC2CC2)cc(-c2ccc3c(ccn3C3CC(C)(C)NC(C)(C)C3)c2)n1 has Population Apoptotic (%) reaching or exceeding 40%?
Response: rule met

Prompt: Is it the case that O=C(Nc1ccc(-n2nc(-c3cccnc3)cc2C(F)(F)F)cn1)c1ccc(-c2ccccc2)c(F)c1 has Population Apoptotic (%) reaching or exceeding 40%?
Response: rule not met

Prompt: Is it the case that S=C(NCCCc1c[nH]cn1)NCCCN(Cc1ccc(Cl)c(Cl)c1)c1ccc(Br)cn1 has Population Apoptotic (%) reaching or exceeding 40%?
Response: rule not met

Prompt: Is it the case that Cc1cn(-c2cc(NC(=O)c3ccc(C)c(Nc4nccc(-c5cccnc5)n4)c3)cc(C(F)(F)F)c2)cn1 has Population Apoptotic (%) reaching or exceeding 40%?
Response: rule not met

Prompt: Is it the case that O=C(Cc1ccc(-c2ccc(OCCN3CCOCC3)cc2)cn1)NCc1ccccc1 has Population Apoptotic (%) reaching or exceeding 40%?
Response: rule met

Prompt: Is it the case that COc1cc(N2CCN(C)CC2)ccc1Nc1ncc2c(n1)N(C)c1ccccc1C(=O)N2C has Population Apoptotic (%) reaching or exceeding 40%?
Response: rule met

Prompt: Is it the case that O=C1NC(=O)C(c2cnc3ccccn23)=C1c1cn2c3c(cc(F)cc13)CN(C(=O)N1CCCCC1)CC2 has Population Apoptotic (%) reaching or exceeding 40%?
Response: rule met

Prompt: Is it the case that Cl.O=c1c2cccn2c2ccccc2n1CCCN1CCC(c2ccc(Cl)cc2)CC1 has Population Apoptotic (%) reaching or exceeding 40%?
Response: rule met

Prompt: Is it the case that Cl.Oc1ccc2c3c1O[C@H]1c4[nH]c5c(c4C[C@@]4(O)[C@@H](C2)N(CC2CC2)CC[C@]314)C[C@@]1(O)[C@H]2Cc3ccc(O)c4c3[C@@]1(CCN2CC1CC1)[C@H]5O4 has Population Apoptotic (%) reaching or exceeding 40%?
Response: rule not met

Prompt: Is it the case that O=C1N/C(=N/c2ccccc2F)S/C1=C\c1ccc(C(=O)O)cc1 has Population Apoptotic (%) reaching or exceeding 40%?
Response: rule not met

Prompt: Is it the case that O=C(Nc1ccc(-c2ccnc(Nc3ccc(N4CCOCC4)cc3)n2)cc1)[C@@H]1CCCN1 has Population Apoptotic (%) reaching or exceeding 40%?
Response: rule not met

Prompt: Is it the case that O=C(Nc1ccc(Cl)cc1)Nc1cccc(-c2cccc(N3CCCC3)n2)c1 has Population Apoptotic (%) reaching or exceeding 40%?
Response: rule met

Prompt: Is it the case that CCN1CCN(Cc2ccc(Nc3ncc(F)c(-c4cc(F)c5nc(C)n(C(C)C)c5c4)n3)nc2)CC1.CS(=O)(=O)O has Population Apoptotic (%) reaching or exceeding 40%?
Response: rule met

Prompt: Is it the case that CN1C2CCC1CC(OC(c1ccc(F)cc1)c1ccc(F)cc1)C2.Cl (stereo not given) has Population Apoptotic (%) reaching or exceeding 40%?
Response: rule not met

Prompt: Is it the case that CNc1cc(Oc2cc(C(=O)Nc3cc(N4CCN(C)CC4)cc(C(F)(F)F)c3)ccc2C)ncn1 has Population Apoptotic (%) reaching or exceeding 40%?
Response: rule met

Prompt: Is it the case that C=C1/C(=C\C=C2/CCC[C@]3(C)[C@@H]([C@H](C)/C=C/[C@H](C)C(C)C)CC[C@@H]23)C[C@@H](O)C[C@@H]1O has Population Apoptotic (%) reaching or exceeding 40%?
Response: rule met

Prompt: Is it the case that Cc1cc(C)c(S(=O)(=O)N(Cc2ccc(-c3cccc(S(C)(=O)=O)c3)cc2)Cc2ccc(C(F)(F)F)o2)c(C)c1 has Population Apoptotic (%) reaching or exceeding 40%?
Response: rule met

Prompt: Is it the case that CN(C)C(=O)C(CCN1CCC(O)(c2ccc(Cl)cc2)CC1)(c1ccccc1)c1ccccc1.Cl [LOPERAMIDE HYDROCHLORIDE] has Population Apoptotic (%) reaching or exceeding 40%?
Response: rule met

Prompt: Is it the case that CCc1cccc(CC)c1NC(=O)c1nn(C)c2c1CCc1cnc(Nc3ccc(C(=O)NC4CCN(C)CC4)cc3OC(F)(F)F)nc1-2 has Population Apoptotic (%) reaching or exceeding 40%?
Response: rule not met

Prompt: Is it the case that Cc1ccc(C(=O)Nc2cccc(C(F)(F)F)c2)cc1Nc1nc(-c2cccnc2)nc2c1cnn2C has Population Apoptotic (%) reaching or exceeding 40%?
Response: rule met

Prompt: Is it the case that CN1CCC(=C2c3ccccc3CC(=O)c3sccc32)CC1.O=C(O)/C=C/C(=O)O [KETOTIFEN FUMARATE] has Population Apoptotic (%) reaching or exceeding 40%?
Response: rule not met

Prompt: Is it the case that CCOc1cc(C(=O)N2CCC(N3CCN(C)CC3)CC2)ccc1Nc1ncc2c(n1)N(C1CCCC1)c1ccccc1C(=O)N2C has Population Apoptotic (%) reaching or exceeding 40%?
Response: rule met

Prompt: Is it the case that CCn1c(=O)c(-c2ccc(-c3cncs3)cc2Cl)cc2cnc(Nc3ccc(N4CCN(C)CC4)cc3)nc21 has Population Apoptotic (%) reaching or exceeding 40%?
Response: rule met
